assay-notes: Study on pharmacokinetics of rats (oral gavage, plasma LC-MS/MS)
Assay type: in vivo
condition-notes: rat, female SD rats, po. 3 mg/kg
Field: Cmax. Provide a value for each of the compounds that follow.
# number only, unit ng/mL dropped from output

Incoming: For the compound CNC(=O)c1ccc(N2CCN(Cc3ccc4nc(C)c(=O)[nH]c4c3F)CC2)c(F)n1 [AZD9574, reference compound] , report Cmax.
Outgoing: 702

Incoming: For the compound Cc1nc(C(=O)NC2CC2)ccc1N1CCN(Cc2cc(F)c3nc(C)c(=O)[nH]c3c2)CC1 , report Cmax.
Outgoing: 2210

Incoming: For the compound CCc1nc2c(F)cc(CN3CCN(c4ccc(C(=O)NCCOC)nc4C)CC3)cc2[nH]c1=O , report Cmax.
Outgoing: 3230

Incoming: For the compound CCc1nc2c(F)cc(CN3CCN(c4ccc(C(=O)NC)nc4C)CC3)cc2[nH]c1=O , report Cmax.
Outgoing: 7180

---

Field: AUC(0-t). Provide a value for each of the molecules that follow.
assay-notes: Study on pharmacokinetics of rats (oral gavage, plasma LC-MS/MS)
Assay type: in vivo
condition-notes: rat, female SD rats, po. 10 mg/kg
# number only, unit µg·h/mL dropped from output

Incoming: For the molecule CNC(=O)c1ccc(N2CCN(Cc3cc(F)c4nc(C)c(=O)[nH]c4c3)CC2)c(C)n1 , report AUC(0-t).
Outgoing: 72.6

Incoming: For the molecule CNC(=O)c1ccc(N2CCN(Cc3cc4[nH]c(=O)c(C)nc4c(F)c3F)CC2)c(C)n1 , report AUC(0-t).
Outgoing: 340

---

Test system: BRCA1-mutated HCC1395 cells
assay-notes: Proliferation inhibitory test of BRCA1-mutated HCC1395 cells (CCK-8)
Type: cell-based
condition-notes: Homo sapiens, 120 h, 5 days, read-out: IC50 (nM), inhibitory activity against BRCA1-mutated HCC1395 cells
Description: CCK-8 was used to measure the content of mitochondrial dehydrogenase in cells at different drug concentrations, and the luminescence intensity was used to reflect the cell activity. The IC50 values of different compounds on BRCA1-mutated HCC1395 cells were calculated using the survival rate, and the proliferation inhibitory effect of the compounds of the present disclosure on BRCA1-mutated HCC1395 cells was studied to evaluate the anti-tumor efficacy of the test compounds at the cellular level. […]
observation-type: IC50 (nM)
# number only, unit nM dropped from output

Incoming: For the compound Cc1nc(C(=O)NC2CC2)ccc1N1CCN(Cc2cc(F)c3nc(C)c(=O)[nH]c3c2)CC1 , report IC50.
Outgoing: 2.56

Incoming: For the compound Cc1nc(C(=O)NCC(F)F)ccc1N1CCN(Cc2cc(F)c3nc(C)c(=O)[nH]c3c2)CC1 , report IC50.
Outgoing: 2.03

Incoming: For the compound CCc1nc2c(F)cc(CN3CCN(c4ccc(C(=O)NC)nc4C)CC3)cc2[nH]c1=O , report IC50.
Outgoing: 1.82

Incoming: For the compound CNC(=O)c1ccc(N2CCN(Cc3ccc4nc(C)c(=O)[nH]c4c3F)CC2)c(F)n1 [AZD9574, reference compound] , report IC50.
Outgoing: 9.93
